Test: total protein half-life in vivo (active degradation + dilution); higher = more stable protein
Conditions: E. coli NCM3722 delta-clpP delta-lon delta-hslV; growth: N-lim chemostat; doubling time 6 h
Label Criterion not met if total protein half-life in vivo falls below 6 h; label Criterion met in every other case.

record_sequence | class_name
MNPIVINRLQRKLGYTFNHQELLQQALTHRSASSKHNERLEFLGDSILSYVIANALYHRFPRVDEGDMSRMRATLVRGNTLAELAREFELGECLRLGPGELKSGGFRRESILADTVEALIGGVFLDSDIQTVEKLILNWYQTRLDEISPGDKQKDPKTRLQEYLQGRHLPLPTYLVVQVRGEAHDQEFTIHCQVSGLSEPVVGTGSSRRKAEQAAAEQALKKLELE [P0A7Y0] | Criterion not met
MIRLSEQSPLGTGRHRKCYAHPEDAQRCIKIVYHRGDGGDKEIRRELKYYAHLGRRLKDWSGIPRYHGTVETDCGTGYVYDVIADFDGKPSITLTEFAEQCRYEEDIAQLRQLLKQLKRYLQDNRIVTMSLKPQNILCHRISESEVIPVVCDNIGESTLIPLATWSKWCCLRKQERLWKRFIAQPALAIALQKDLQPRESKTLALTSREA | Criterion not met
METRREERIGQLLQELKRSDKLHLKDAAALLGVSEMTIRRDLNNHSAPVVLLGGYIVLEPRSASHYLLSDQKSRLVEEKRRAAKLAATLVEPDQTLFFDCGTTTPWIIEAIDNEIPFTAVCYSLNTFLALKEKPHCRAFLCGGEFHASNAIFKPIDFQQTLNNFCPDIAFYSAAGVHVSKGATCFNLEELPVKHWAMSMAQKHVLVVDHSKFGKVRPARMGDLKRFDIVVSDCCPEDEYVKYAQTQRIKLMY [P0ACK5] | Criterion met
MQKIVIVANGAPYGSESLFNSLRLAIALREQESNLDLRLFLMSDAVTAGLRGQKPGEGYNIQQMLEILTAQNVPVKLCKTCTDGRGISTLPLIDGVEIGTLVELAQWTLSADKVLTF [P0AB52] | Criterion not met
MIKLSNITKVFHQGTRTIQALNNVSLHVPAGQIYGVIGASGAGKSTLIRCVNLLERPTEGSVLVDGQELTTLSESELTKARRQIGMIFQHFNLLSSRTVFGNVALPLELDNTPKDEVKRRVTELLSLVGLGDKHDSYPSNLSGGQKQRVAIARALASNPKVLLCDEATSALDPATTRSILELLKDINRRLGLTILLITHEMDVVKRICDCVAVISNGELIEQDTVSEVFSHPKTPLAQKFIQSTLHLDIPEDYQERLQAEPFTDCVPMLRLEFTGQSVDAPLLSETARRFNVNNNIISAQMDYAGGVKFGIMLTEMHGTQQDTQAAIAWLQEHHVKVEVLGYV | Criterion met
MYYPFVRKALFQLDPERAHEFTFQQLRRITGTPFEALVRQKVPAKPVNCMGLTFKNPLGLAAGLDKDGECIDALGAMGFGSIEIGTVTPRPQPGNDKPRLFRLVDAEGLINRMGFNNLGVDNLVENVKKAHYDGVLGINIGKNKDTPVEQGKDDYLICMEKIYAYAGYIAINISSPNTPGLRTLQYGEALDDLLTAIKNKQNDLQAMHHKYVPIAVKIAPDLSEEELIQVADSLVRHNIDGVIATNTTLDRSLVQGMKNCDQTGGLSGRPLQLKSTEIIRRLSLELNGRLPIIGVGGIDSVIAAREKIAAGASLVQIYSGFIFKGPPLIKEIVTHI [P0A7E1] | Criterion met
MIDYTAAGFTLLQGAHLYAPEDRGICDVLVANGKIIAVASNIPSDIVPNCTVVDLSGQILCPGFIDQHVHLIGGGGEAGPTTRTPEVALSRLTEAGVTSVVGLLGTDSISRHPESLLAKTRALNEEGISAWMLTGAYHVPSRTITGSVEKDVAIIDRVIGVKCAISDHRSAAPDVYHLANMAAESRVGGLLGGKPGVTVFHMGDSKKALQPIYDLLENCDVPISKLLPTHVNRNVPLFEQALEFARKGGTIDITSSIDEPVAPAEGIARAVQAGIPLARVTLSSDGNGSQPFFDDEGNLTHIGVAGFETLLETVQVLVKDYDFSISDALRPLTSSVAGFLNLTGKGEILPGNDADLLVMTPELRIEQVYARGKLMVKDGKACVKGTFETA | Criterion met
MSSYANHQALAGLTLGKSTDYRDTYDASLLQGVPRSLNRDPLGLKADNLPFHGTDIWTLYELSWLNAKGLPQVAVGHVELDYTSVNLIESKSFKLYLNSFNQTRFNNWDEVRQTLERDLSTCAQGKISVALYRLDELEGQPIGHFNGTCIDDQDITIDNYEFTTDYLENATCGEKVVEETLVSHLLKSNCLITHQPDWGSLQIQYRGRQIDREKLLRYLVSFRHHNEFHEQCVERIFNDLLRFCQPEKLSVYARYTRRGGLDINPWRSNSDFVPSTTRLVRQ | Criterion not met
MDFNLNDEQELFVAGIRELMASENWEAYFAECDRDSVYPERFVKALADMGIDSLLIPEEHGGLDAGFVTLAAVWMELGRLGAPTYVLYQLPGGFNTFLREGTQEQIDKIMAFRGTGKQMWNSAITEPGAGSDVGSLKTTYTRRNGKIYLNGSKCFITSSAYTPYIVVMARDGASPDKPVYTEWFVDMSKPGIKVTKLEKLGLRMDSCCEITFDDVELDEKDMFGREGNGFNRVKEEFDHERFLVALTNYGTAMCAFEDAARYANQRVQFGEAIGRFQLIQEKFAHMAIKLNSMKNMLYEAAWKADNGTITSGDAAMCKYFCANAAFEVVDSAMQVLGGVGIAGNHRISRFWRDLRVDRVSGGSDEMQILTLGRAVLKQYR | Criterion met
